# tested_target: rat NaPi-2b (Rattus norvegicus, UniProt Q9JJ09)
# Sequence (Q9JJ09 1-695): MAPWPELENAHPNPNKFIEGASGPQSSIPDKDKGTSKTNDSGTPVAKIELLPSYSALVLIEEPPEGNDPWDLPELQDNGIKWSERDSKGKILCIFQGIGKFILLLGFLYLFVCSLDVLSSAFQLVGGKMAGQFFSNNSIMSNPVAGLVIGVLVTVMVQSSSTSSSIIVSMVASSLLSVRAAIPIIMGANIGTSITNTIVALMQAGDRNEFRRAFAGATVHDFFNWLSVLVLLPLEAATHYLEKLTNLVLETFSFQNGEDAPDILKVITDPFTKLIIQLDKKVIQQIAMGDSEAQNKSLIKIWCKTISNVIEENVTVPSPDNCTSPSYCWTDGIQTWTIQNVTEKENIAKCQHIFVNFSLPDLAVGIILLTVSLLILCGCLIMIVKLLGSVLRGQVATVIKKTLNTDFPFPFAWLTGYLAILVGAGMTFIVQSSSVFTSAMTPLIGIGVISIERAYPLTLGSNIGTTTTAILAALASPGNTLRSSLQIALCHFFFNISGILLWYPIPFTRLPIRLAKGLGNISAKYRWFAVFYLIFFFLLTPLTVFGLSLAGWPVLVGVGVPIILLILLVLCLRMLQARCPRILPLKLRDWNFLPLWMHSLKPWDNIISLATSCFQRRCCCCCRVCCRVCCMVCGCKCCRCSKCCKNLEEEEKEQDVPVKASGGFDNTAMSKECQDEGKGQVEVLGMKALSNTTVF
# assay_procedure: Sodium-dependent phosphate uptake of Xenopus oocytes which expressed NaPi-2b (32P)
# condition_summary: Xenopus oocytes expressing rat NaPi-2b, 32P radioactive phosphorus; read-out: IC50 (phosphate uptake inhibitory activity)
assay_endpoint: IC50

Lookup: Recorded IC50 for `CCN(CC)CCNCc1cccc(C(=O)Nc2scc(C)c2C(=O)N/N=C/c2ccc(OC)cc2)c1` , please?
Found: < 3000 nM

Lookup: Do the same for `CCN(CC)CCSCc1cccc(C(=O)Nc2ccc(N3CCCCC3)cc2C(=O)N/N=C/c2ccc(Cl)c(C(F)(F)F)c2)c1` please
Found: < 300 nM

Lookup: Do the same for `O=C(Nc1sc2c(c1C(=O)N/N=C/c1ccc(Cl)c(C(F)(F)F)c1)CCCC2)c1cccc(CN2CCC(N3CCCCC3)CC2)c1` please
Found: < 3000 nM

Lookup: Do the same for `CCN(CC)CCN(C)Cc1cccc(C(=O)Nc2ccc(OCC3CCCCC3)cc2C(=O)N/N=C/c2ccc(Cl)c(C(F)(F)F)c2)c1` please
Found: < 1000 nM

---

Field: IC50. Provide a value for each of the compounds that follow.
# tested_target: rat NaPi-2b (Rattus norvegicus, UniProt Q9JJ09)
# assay_procedure: Sodium-dependent phosphate uptake of Xenopus oocytes which expressed NaPi-2b (32P)
# condition_summary: Xenopus oocytes expressing rat NaPi-2b, 32P radioactive phosphorus; read-out: IC50 (phosphate uptake inhibitory activity)
Enter your answer as a number in µM; do not include the unit.

Lookup: IC50 of O=C(Nc1ccc(Br)cc1C(=O)N/N=C/c1ccc(Cl)c(C(F)(F)F)c1)c1cccs1 [Compound 162] on rat NaPi-2b (Rattus norvegicus, UniProt Q9JJ09)?
Found: 3.11

Lookup: Do the same for Cc1ccc(/C=N/NC(=O)c2cc(OCCCN3CCCCC3)ccc2NC(=O)c2cccc(CSCCO)c2)cc1C [Compound 1041] please
Found: 10.2

Lookup: Do the same for COc1ccc(C(=O)Nc2ccccc2C(=O)N/N=C/c2ccccc2Br)cc1OC [Compound 10] please
Found: 26.1

Lookup: Do the same for CCN(CC)CCN(CCN(CC)CC)Cc1cccc(C(=O)Nc2sc3c(c2C(=O)N/N=C/c2ccc(OC)cc2)CCCC3)c1 [Compound 850] please
Found: 3.1

Lookup: Do the same for Cc1ccc(/C=N/NC(=O)c2cc(Br)ccc2NC(=O)c2cccs2)cc1C [Compound 161] please
Found: 0.96

Lookup: Do the same for COc1ccc(/C=N/NC(=O)c2c(NC(=O)c3cccc(CN4CCC(N5CCCCC5)CC4)c3)sc3c2CCCC3)cc1 [Compound 620] please
Found: 3.58

Lookup: Do the same for CCN(CC)CCN(C)Cc1cccc(C(=O)Nc2ccc(OCCOCCOC)cc2C(=O)N/N=C/c2cccc(F)c2)c1 [Compound 1033] please
Found: 18.7

Lookup: Do the same for COc1ccc(C(=O)Nc2ccccc2C(=O)N/N=C/C(C)=C/c2ccccc2)cc1OC [Compound 7] please
Found: 7.15

Lookup: Do the same for O=C(Nc1ccccc1C(=O)N/N=C/c1ccc(F)cc1)c1ccccn1 [Compound 506] please
Found: 19.5
